# target-of-assay: HLA-A*02:02
# experimental-protocol: IEDB peptide-MHC binding, purified MHC/competitive/radioactivity; bounds were set here for any values at or beyond the usual limits of such assays
# particulars: source organism: Vaccinia virus WR
endpoint-label: log10(IC50) (log10 of the value in µM)
Hey, these are logged values: log10 of IC50, µM being the unit before logging.

# example entries with known answers
AAVTLNRIKI ... -0.08
SLKRFTHTT ... -0.08
TTPLISFFGL ... 0.70
KLPTWLGAA ... -0.30

stdin: Which log10(IC50) reading was recorded for the sequence `ILFILFFAYV` ?
stdout: -0.88

stdin: Next: `DIYDAVRAFL`
stdout: 0.16

stdin: Next: `TQVKELGIAI`
stdout: 0.34

stdin: Next: `IISSKQYPA`
stdout: -0.79

stdin: Next: `TAYIGTSNWT`
stdout: 0.25

stdin: Next: `ALEQYGIENT`
stdout: 0.50

stdin: Next: `SLDQTHIKTI`
stdout: 0.16

stdin: Next: `AAVIIMAINV`
stdout: 0.11

stdin: Next: `ILANERYRSA`
stdout: -0.98

stdin: Next: `ILGIIITVGM`
stdout: -0.54

stdin: Next: `YIESKAKQL`
stdout: -0.84

====

# target-of-assay: HLA-A*02:02
# experimental-protocol: IEDB peptide-MHC binding, purified MHC/competitive/radioactivity; bounds were set here for any values at or beyond the usual limits of such assays
# particulars: source organism: SARS-CoV1
endpoint-label: pIC50
Keep in mind that pIC50 stands for -log10 of concentration in molar terms.

FLAFVVFLL ... 9.39

stdin: Which pIC50 reading was recorded for the sequence `FLLFLVLIML` ?
stdout: 5.80

stdin: Next: `TLLCVLAAL`
stdout: 8.09

stdin: Next: `MQVFFGYFA`
stdout: 8.00

stdin: Next: `WLLWPVTLA`
stdout: 7.92

stdin: Next: `MLIIFWFSL`
stdout: 6.88

====

Parameter: pIC50. Scope: all listed entries.
# target-of-assay: HLA-A*02:02
# experimental-protocol: IEDB peptide-MHC binding, purified MHC/competitive/radioactivity; bounds were set here for any values at or beyond the usual limits of such assays
# particulars: source organism: Hepatitis B virus
Keep in mind that pIC50 stands for -log10 of concentration in molar terms.

# example entries with known answers
PLLPIFFCL ... 7.20
NLSWLSLDV ... 7.16
MMWYWGPSL ... 6.86
HLYSHPIIL ... 7.09

Lab note: next sequence to report on.
stdin: Which pIC50 reading was recorded for the sequence `YLVSFGVWI` ?
stdout: 6.85

====

Parameter: pIC50. Scope: all listed entries.
# target-of-assay: HLA-A*02:01
# experimental-protocol: IEDB peptide-MHC binding, cellular MHC/competitive/fluorescence; bounds were set here for any values at or beyond the usual limits of such assays
# particulars: source organism: Vaccinia virus WR
Keep in mind that pIC50 stands for -log10 of concentration in molar terms.

# example entries with known answers
IIDLLLPST ... 5.25
RTDTTICLSI ... 4.96
ELKDLLNVT ... 4.29

stdin: Give recorded pIC50 with HLA-A*02:01 for the following sequence: `TQHPDYAILA`
stdout: 5.17

stdin: Next: `TAVNEEWLTA`
stdout: 4.60

stdin: Next: `DTIAHINTL`
stdout: 4.99

stdin: Next: `SLETVKMGA`
stdout: 4.58

stdin: Next: `DIRDKYMEL`
stdout: 4.99

stdin: Next: `SAEVERLMEL`
stdout: 5.10

stdin: Next: `GVEVRYIDI`
stdout: 4.78

stdin: Next: `PVKRIIDSEV`
stdout: 4.47

stdin: Next: `NIKISLNEI`
stdout: 4.68

stdin: Next: `PAMSTYSDI`
stdout: 4.79

stdin: Next: `TTLSRHIFM`
stdout: 5.19

stdin: Next: `SVFYRGAENI`
stdout: 4.68

stdin: Next: `AVNEEWLTA`
stdout: 4.76

stdin: Next: `IVGLDLENL`
stdout: 4.85

stdin: Next: `NVTNPFDFM`
stdout: 5.10

stdin: Next: `ELFIKALSDA`
stdout: 4.96

stdin: Next: `AVCNLASVA`
stdout: 4.75

stdin: Next: `CAVNTPVSM`
stdout: 4.31

stdin: Next: `SQLSVLSSIT`
stdout: 4.94

stdin: Next: `YVILKDPRIA`
stdout: 4.40

stdin: Next: `HLRASTTENA`
stdout: 4.70

====

# target-of-assay: HLA-A*02:06
# experimental-protocol: IEDB peptide-MHC binding, purified MHC/competitive/radioactivity; bounds were set here for any values at or beyond the usual limits of such assays
# particulars: source organism: Vaccinia virus WR
endpoint-label: pIC50
Keep in mind that pIC50 stands for -log10 of concentration in molar terms.

LTGTFVTAFI ... 6.38
WVMDTLNGIM ... 6.89
PLISILMIFI ... 5.62
TLISSDGARV ... 5.91
LTSVDIETAI ... 5.50

stdin: Which pIC50 reading was recorded for the sequence `FQESFYEDI` ?
stdout: 6.73

stdin: Next: `ELKHGLLDSI`
stdout: 5.87

stdin: Next: `FTEGKINPLL`
stdout: 7.07

====

# target-of-assay: HLA-A*02:03
# experimental-protocol: IEDB peptide-MHC binding, purified MHC/competitive/radioactivity; bounds were set here for any values at or beyond the usual limits of such assays
# particulars: source organism: Vaccinia virus WR
endpoint-label: IC50 (nM)
Could you give me the number in nM? Just the number is fine.

# example entries with known answers
LQWDDNIPEL ... 712
STSPTRTWKV ... 717
MTSTRTIIL ... 840
KLVETGFVI ... 1070

stdin: Give recorded IC50 with HLA-A*02:03 for the following sequence: `AVKFAEESYT`
stdout: 1470

====

# target-of-assay: HLA-A*02:06
# experimental-protocol: IEDB peptide-MHC binding, purified MHC/competitive/radioactivity; bounds were set here for any values at or beyond the usual limits of such assays
# particulars: source organism: Vaccinia virus WR
endpoint-label: pIC50
Keep in mind that pIC50 stands for -log10 of concentration in molar terms.

SLEATFIDV ... 8.00
SMYGKAFNHA ... 8.40
YIILFILFFA ... 5.98
LLNMRDLIV ... 6.65

stdin: Give recorded pIC50 with HLA-A*02:06 for the following sequence: `VIPDELIDV`
stdout: 6.25

stdin: Next: `FIPIIYSKA`
stdout: 7.02

stdin: Next: `DQTHIKTIAV`
stdout: 6.00

stdin: Next: `TLNTLITLI`
stdout: 6.03

stdin: Next: `KVIKLVKSL`
stdout: 6.59

stdin: Next: `GVLPEETNI`
stdout: 6.24

stdin: Next: `YLRGHTESI`
stdout: 7.04

stdin: Next: `SLSNLDFRL`
stdout: 5.86

stdin: Next: `KTPLYYLSGT`
stdout: 5.85

stdin: Next: `KIEDLINQLV`
stdout: 6.84

stdin: Next: `RLQMAGVEV`
stdout: 5.39

stdin: Next: `KIMEIVSHL`
stdout: 7.52

====

Parameter: IC50. Scope: all listed entries.
# target-of-assay: HLA-A*02:06
# experimental-protocol: IEDB peptide-MHC binding, purified MHC/competitive/radioactivity; bounds were set here for any values at or beyond the usual limits of such assays
# particulars: source organism: Vaccinia virus WR
Could you give me the number in nM? Just the number is fine.

IVNCLSLSNL ... 1280
KTVKNVDII ... 698
IINSVSIILA ... 957
NLLEQLIENI ... 396
SMYVIPDELI ... 492
IVQLPKRGV ... 3120

Lab note: next sequence to report on.
stdin: Which IC50 reading was recorded for the sequence `GMSIVCIVA` ?
stdout: 4510

====

# target-of-assay: HLA-A*02:01
# experimental-protocol: IEDB peptide-MHC binding, cellular MHC/competitive/fluorescence; bounds were set here for any values at or beyond the usual limits of such assays
# particulars: source organism: Vaccinia virus WR
Parameter: IC50. Scope: all listed entries.
Could you give me the number in µM? Just the number is fine.

# example entries with known answers
KAMCNTRDT ... 51.6
SVDVDIYDA ... 13.3
TVDFTDCRT ... 33.6
SANEAAITDA ... 10.2
LVKWPLLNI ... 9.21
RQLTSNVDV ... 8.98
STKADAVVA ... 29.3
SVVTLLCVL ... 14.7
YTFAISYCRA ... 10.3

stdin: Which IC50 reading was recorded for the sequence `NIIMKTPGNT` ?
stdout: 8.14

====

Parameter: pIC50. Scope: all listed entries.
# target-of-assay: HLA-A*68:02
# experimental-protocol: IEDB peptide-MHC binding, purified MHC/competitive/radioactivity; bounds were set here for any values at or beyond the usual limits of such assays
# particulars: source organism: Vaccinia virus WR
Keep in mind that pIC50 stands for -log10 of concentration in molar terms.

# example entries with known answers
KTDGAVTSPL ... 6.27
NTFVNFNSV ... 8.24
RVSENTGMGM ... 7.18
FVATFRDML ... 7.92
YLYNKYSFKL ... 8.32
ATFRDMLLNV ... 6.29

stdin: Which pIC50 reading was recorded for the sequence `YLGPRVCWL` ?
stdout: 6.29

stdin: Next: `AVIIMAINV`
stdout: 5.91

stdin: Next: `DIISSKQYPA`
stdout: 6.66

stdin: Next: `AAKTPVIVV`
stdout: 5.37

stdin: Next: `AVYFKAKWLT`
stdout: 6.22
